Biological target: DN-IV quality control recombinant protein (produced by the company) (dengue virus)
Assay: BLI, antibody on AMC sensor
pKd: −log10 of the molar value.
Documented pKd across a set of binders
Reported metric: pKd

binder="WT 1-14 (antibody, V domains shown) VH: EVQLQQPGPELVKPGASVKMSCKASGYTVTSSVIHWVRQKPGQGLEWIGYMNAYNDGLKYNDKFIGKAILTSDKSSSTAYMQLSSLTSEDSAVYYCTREGLFYVFDYWGQGTSVTVSS VL: QIVLTQSPAIMSASPGEKVTMTCSGTSSLSYMHWYQQKSGTSPKRWIYDSSKLASPVPVRFSGSGSGTSYSLTISSMEAEDAATYFCQWWRSVLPTFGAGTKLELKR" reported_metric=pKd recorded_result=7.34
binder="Mutation 1-35 (antibody, V domains shown) VH: EVQLQQPGPELVKPGASVKMSCKASGYTFTSYVIHWVRQKPGQGLEWIGYMNPYNDGLKYNEKFIGKAILTSDKSSSTAYMQLSSLTSEDSAVYYCTKEGLFYVMDYWGQGTSVTVSS VL: QIVLTQSPAIMSASPGEKVTMTCSATSSVSYMHWYQQKSGTSPKRWIYDSSKLASGVPVRFSGSGSGTSYSLTISSMEAEDAATYFCQWWRSDLPTFGAGTKLELKR" reported_metric=pKd recorded_result=9.18
